Assignment: determine reported %Inh for the given compounds.
tested on: TRKC; construct: gene NTRK3; details: concentration: 1 μM, replicates: in singlicate; n = 1;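 also: KINOMEscan kinase panel screen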
Remember to put the unit after the number in your answer.

Exercise: Suppose we examine the compound COc1cc(Nc2ncc3c(C)nc(-c4cc5ccccc5[nH]4)n3n2)cc(OC)c1OC ; what %Inh value has been reported?
Key: 0%

Exercise: Same for COc1cc(Nc2nccc(-c3c(-c4cccc(NC(=O)c5c(F)cccc5F)c4)nn4ccccc34)n2)cc(OC)c1OC
Key: 40%

Exercise: What do you have for c1ccc(-c2cnc3nccnn23)cc1 ?
Key: 0%

Exercise: Subsequent entry: CCCCc1nn2ncccc2c1-c1ccnc(Nc2ccc(N3CCN(C)CC3)cc2)n1
Key: 66%

Exercise: Follow-up item: Cc1ccc(F)c(C(=O)Nc2cccc(-c3nn4ccccc4c3-c3ccnc(Nc4cccc(F)c4)n3)c2)c1F
Key: 0%

Exercise: Then this compound: Cl.c1ccc(-c2ccc3c(Nc4ccc5[nH]ccc5c4)ccnc3c2)nc1
Key: 23%

Exercise: Try this compound too: Cc1ccc(C(=O)N2CC[C@@H](O)C2)cc1-n1c(C)cc(OCc2ccc(F)cc2F)c(Br)c1=O
Key: 0%

Exercise: Subsequent entry: O=C(Nc1cccc(-c2nn3ccccc3c2-c2ccnc(Nc3cccc(F)c3)n2)c1)c1c(F)ccc(F)c1Cl
Key: 0%
